Target: Lysine-specific demethylase 4E (Homo sapiens)
Sequence (B2RXH2 whole entry): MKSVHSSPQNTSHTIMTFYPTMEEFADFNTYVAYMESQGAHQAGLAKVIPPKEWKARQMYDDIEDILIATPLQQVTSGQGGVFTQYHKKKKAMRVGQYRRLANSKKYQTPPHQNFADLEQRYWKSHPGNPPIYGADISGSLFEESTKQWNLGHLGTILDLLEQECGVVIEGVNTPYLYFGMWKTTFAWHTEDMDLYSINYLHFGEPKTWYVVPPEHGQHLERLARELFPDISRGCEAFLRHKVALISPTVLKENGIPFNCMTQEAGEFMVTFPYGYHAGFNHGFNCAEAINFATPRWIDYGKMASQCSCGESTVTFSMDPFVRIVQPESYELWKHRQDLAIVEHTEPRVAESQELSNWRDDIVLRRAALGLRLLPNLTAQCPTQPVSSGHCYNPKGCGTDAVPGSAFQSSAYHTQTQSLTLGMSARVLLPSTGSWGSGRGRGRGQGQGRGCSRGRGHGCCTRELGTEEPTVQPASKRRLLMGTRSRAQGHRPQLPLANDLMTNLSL
pIC50: −log10 of the molar value.
# pIC50 against Lysine-specific demethylase 4E (Homo sapiens), merged from multiple literature sources
Hi, to clarify the labels: Y covers pIC50 from 5 upward, N covers anything below 5.

>  <MOLECULE>
O=c1[nH]c(Oc2ccc(Cl)c(O)c2)nc2cnccc12

>  <QUALITATIVE_LABEL>
Y

$$$$
>  <MOLECULE>
COC(=O)c1ccnc(-c2cc(C(=O)O)ccn2)c1

>  <QUALITATIVE_LABEL>
Y

$$$$
>  <MOLECULE>
O=c1[nH]c(Oc2cnn(C3CCCC3)c2)nc2cnccc12

>  <QUALITATIVE_LABEL>
Y

$$$$
>  <MOLECULE>
N[C@H]1C[C@@H]1c1ccc(NC(=O)CCCCNC(=O)c2ccc(O)c3ncccc23)cc1 (relative stereo)

>  <QUALITATIVE_LABEL>
Y

$$$$
>  <MOLECULE>
Oc1ccc(C2CNCCc3c2cc(O)c(O)c3Cl)cc1 (centres undefined)

>  <QUALITATIVE_LABEL>
Y

$$$$
>  <MOLECULE>
COC(=O)c1ccnc(-c2cc(C(=O)Nc3ccc([C@@H]4C[C@H]4N)cc3)ccn2)c1.Cl (relative stereo)

>  <QUALITATIVE_LABEL>
N

$$$$
>  <MOLECULE>
O=C(O)c1ccc(C(=O)O)nc1

>  <QUALITATIVE_LABEL>
N

$$$$
>  <MOLECULE>
O=c1[nH]c(Oc2cnn(CC3CCCCC3)c2)nc2cnccc12

>  <QUALITATIVE_LABEL>
Y

$$$$
